Tested on: MDA-MB-231 complex spheroid viability
assay-name: Anticancer human tumor MDA-MB-231/ATCC cell line growth inhibition;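 note: drug exposure lasted 7 days starting on day 3 of spheroid growth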
assay-conditions: second compound 0.316 µM; first compound 1 µM; hits give low values
value-kind: viability, T/C (%)
Respond numerically; units are % and should not be typed.

Q: Need viability, T/C, item O=C(C=Cn1cnc(-c2cc(C(F)(F)F)cc(C(F)(F)F)c2)n1)NNc1cnccn1 + NC1CC1c1ccc(-c2cccc(O)c2)cc1
Result: 5.35

Q: Please give the result for Nc1ncn(C2CC(O)C(CO)O2)c(=O)n1 (stereo unspecified) + NC1CCC(NC2CC2c2ccccc2)CC1 too.
Result: 62.7

Q: Please give the result for CC1COCCN1c1cc(C2(S(C)(=N)=O)CC2)nc(-c2ccnc3[nH]ccc23)n1 (stereo unspecified) + NC1CC1c1ccc(-c2cccc(O)c2)cc1 too.
Result: 42

Q: Please give the result for Nc1ncn(C2CC(O)C(CO)O2)c(=O)n1 (stereo unspecified) + NC1CC1c1ccc(-c2cccc(O)c2)cc1 too.
Result: 49.6

Q: Please give the result for COc1cc(Nc2ncc3c(n2)-c2ccc(Cl)cc2C(c2c(F)cccc2OC)=NC3)ccc1C(=O)O + NC1CC1c1ccc(-c2cccc(O)c2)cc1 too.
Result: 21.4

Q: Please give the result for CC1(C)CCC(CN2CCN(c3ccc(C(=O)NS(=O)(=O)c4ccc(NCC5CCOCC5)c([N+](=O)[O-])c4)c(Oc4cnc5[nH]ccc5c4)c3)CC2)=C(c2ccc(Cl)cc2)C1 + NC1CCC(NC2CC2c2ccccc2)CC1 too.
Result: 97.3

* * *

Tested on: MDA-MB-231 complex spheroid viability
assay-name: Anticancer human tumor MDA-MB-231/ATCC cell line growth inhibition;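 note: drug exposure lasted 7 days starting on day 3 of spheroid growth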
assay-conditions: second compound 3.16 µM; first compound 0.000316 µM; hits give low values
value-kind: viability, T/C

Q: Need viability, T/C, item CC(C)CC(NC(=O)CNC(=O)c1cc(Cl)ccc1Cl)B1OC(=O)CC(CC(=O)O)(C(=O)O)O1 (stereo not drawn) + NC1CCC(NC2CC2c2ccccc2)CC1
Result: 83.8%

Q: Please give the result for CC(C)CC(NC(=O)C(Cc1ccccc1)NC(=O)c1cnccn1)B(O)O (stereo not drawn) + NC1CCC(NC2CC2c2ccccc2)CC1 too.
Result: 70%

Q: Please give the result for Cn1ncnc1C1c2n[nH]c(=O)c3cc(F)cc(c23)NC1c1ccc(F)cc1 (stereo not drawn) + NC1CC1c1ccc(-c2cccc(O)c2)cc1 too.
Result: 66.6%

Q: Please give the result for Cn1ncnc1C1c2n[nH]c(=O)c3cc(F)cc(c23)NC1c1ccc(F)cc1 (stereo not drawn) + NC1CCC(NC2CC2c2ccccc2)CC1 too.
Result: 70.8%

Q: Please give the result for CC(C)CC(NC(=O)C(Cc1ccccc1)NC(=O)c1cnccn1)B(O)O (stereo not drawn) + NC1CC1c1ccc(-c2cccc(O)c2)cc1 too.
Result: 25.6%

Q: Please give the result for CC[C@@]1(O)C(=O)OCc2c1cc1n(c2=O)Cc2cc3c(CN(C)C)c(O)ccc3nc2-1 + NC1CCC(NC2CC2c2ccccc2)CC1 too.
Result: 74.4%

Q: Please give the result for CC[C@@]1(O)C(=O)OCc2c1cc1n(c2=O)Cc2cc3c(CN(C)C)c(O)ccc3nc2-1 + NC1CC1c1ccc(-c2cccc(O)c2)cc1 too.
Result: 57.2%

Q: Please give the result for CC(C)CC(NC(=O)CNC(=O)c1cc(Cl)ccc1Cl)B1OC(=O)CC(CC(=O)O)(C(=O)O)O1 (stereo not drawn) + NC1CC1c1ccc(-c2cccc(O)c2)cc1 too.
Result: 61.8%

* * *

Please respond with reported viability, T/C for every item in the list.
Test system: MDA-MB-231 complex spheroid viability
assay-name: Anticancer human tumor MDA-MB-231/ATCC cell line growth inhibition;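 note: drug exposure lasted 7 days starting on day 3 of spheroid growth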
assay-conditions: second compound 0.316 µM; first compound 0.01 µM; hits give low values
Respond numerically; units are % and should not be typed.

Q: Need viability, T/C, item CC(C)CC(NC(=O)C(Cc1ccccc1)NC(=O)c1cnccn1)B(O)O (centres undefined) + NC1CC1c1ccc(-c2cccc(O)c2)cc1
Result: 0.06

Q: Please give the result for CC(C)CC(NC(=O)CNC(=O)c1cc(Cl)ccc1Cl)B1OC(=O)CC(CC(=O)O)(C(=O)O)O1 (centres undefined) + NC1CCC(NC2CC2c2ccccc2)CC1 too.
Result: 36.4

Q: Please give the result for Cn1ncnc1C1c2n[nH]c(=O)c3cc(F)cc(c23)NC1c1ccc(F)cc1 (centres undefined) + NC1CC1c1ccc(-c2cccc(O)c2)cc1 too.
Result: 57.1

Q: Please give the result for CC(C)CC(NC(=O)C(Cc1ccccc1)NC(=O)c1cnccn1)B(O)O (centres undefined) + NC1CCC(NC2CC2c2ccccc2)CC1 too.
Result: 0.23

* * *

Please respond with reported viability, T/C for every item in the list.
System: MDA-MB-231 complex spheroid viability
assay-name: Anticancer human tumor MDA-MB-231/ATCC cell line growth inhibition;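 note: drug exposure lasted 7 days starting on day 3 of spheroid growth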
assay-conditions: second compound 0.316 µM; first compound 1 µM; hits give low values
Respond numerically; units are % and should not be typed.

Q: Need viability, T/C, item COc1ccc([C@@H](O)c2cc(-c3ncnc4cc(N5CCOCC5)ccc34)c(F)cc2Cl)nn1 + NC1CC1c1ccc(-c2cccc(O)c2)cc1
Result: 28.9

Q: Please give the result for CC1COCCN1c1cc(C2(S(C)(=N)=O)CC2)nc(-c2ccnc3[nH]ccc23)n1 (centres undefined) + NC1CCC(NC2CC2c2ccccc2)CC1 too.
Result: 59.2

Q: Please give the result for CC(C)c1c(-c2ccccc2)nc2c(C#N)c[nH]n2c1=O + NC1CCC(NC2CC2c2ccccc2)CC1 too.
Result: 111

Q: Please give the result for O=C(c1cc(Cc2n[nH]c(=O)c3ccccc23)ccc1F)N1CCN(C(=O)C2CC2)CC1 + NC1CC1c1ccc(-c2cccc(O)c2)cc1 too.
Result: 44.5

* * *

Test system: MDA-MB-231 complex spheroid viability
assay-name: Anticancer human tumor MDA-MB-231/ATCC cell line growth inhibition; active means viability on the fitted dose curve at most 10% of control; inactive means the rest;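 note: drug exposure lasted 7 days starting on day 3 of spheroid growth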
assay-conditions: second compound 3.16 µM; first compound 0.1 µM
Select the correct class. Options are active, inactive and nothing else.

Q: GET /call?item= Cn1ncnc1C1c2n[nH]c(=O)c3cc(F)cc(c23)NC1c1ccc(F)cc1 (stereo unspecified) + NC1CCC(NC2CC2c2ccccc2)CC1 returns the recorded outcome of this test.
Result: inactive

Q: Please give the result for CC1COCCN1c1cc(-c2ccnn2C)c2ccnc(-c3ccn[nH]3)c2n1 (stereo unspecified) + NC1CCC(NC2CC2c2ccccc2)CC1 too.
Result: inactive

Q: Please give the result for Cn1ncnc1C1c2n[nH]c(=O)c3cc(F)cc(c23)NC1c1ccc(F)cc1 (stereo unspecified) + NC1CC1c1ccc(-c2cccc(O)c2)cc1 too.
Result: inactive

Q: Please give the result for Nc1ncn(C2CC(O)C(CO)O2)c(=O)n1 (stereo unspecified) + NC1CC1c1ccc(-c2cccc(O)c2)cc1 too.
Result: inactive

Q: Please give the result for CC1(C)CCC(CN2CCN(c3ccc(C(=O)NS(=O)(=O)c4ccc(NCC5CCOCC5)c([N+](=O)[O-])c4)c(Oc4cnc5[nH]ccc5c4)c3)CC2)=C(c2ccc(Cl)cc2)C1 + NC1CCC(NC2CC2c2ccccc2)CC1 too.
Result: inactive

Q: Please give the result for CC(C)CC(NC(=O)CNC(=O)c1cc(Cl)ccc1Cl)B1OC(=O)CC(CC(=O)O)(C(=O)O)O1 (stereo unspecified) + NC1CC1c1ccc(-c2cccc(O)c2)cc1 too.
Result: active

Q: Please give the result for CC[C@@]1(O)C(=O)OCc2c1cc1n(c2=O)Cc2cc3c(CN(C)C)c(O)ccc3nc2-1 + NC1CCC(NC2CC2c2ccccc2)CC1 too.
Result: inactive

Q: Please give the result for COc1cc(Nc2ncc3c(n2)-c2ccc(Cl)cc2C(c2c(F)cccc2OC)=NC3)ccc1C(=O)O + NC1CC1c1ccc(-c2cccc(O)c2)cc1 too.
Result: inactive

Q: Please give the result for CC1COCCN1c1cc(-c2ccnn2C)c2ccnc(-c3ccn[nH]3)c2n1 (stereo unspecified) + NC1CC1c1ccc(-c2cccc(O)c2)cc1 too.
Result: inactive

Q: Please give the result for COc1ccc([C@@H](O)c2cc(-c3ncnc4cc(N5CCOCC5)ccc34)c(F)cc2Cl)nn1 + NC1CC1c1ccc(-c2cccc(O)c2)cc1 too.
Result: inactive

Q: Please give the result for CC(C)CC(NC(=O)C(Cc1ccccc1)NC(=O)c1cnccn1)B(O)O (stereo unspecified) + NC1CC1c1ccc(-c2cccc(O)c2)cc1 too.
Result: active

Q: Please give the result for COc1ccc([C@@H](O)c2cc(-c3ncnc4cc(N5CCOCC5)ccc34)c(F)cc2Cl)nn1 + NC1CCC(NC2CC2c2ccccc2)CC1 too.
Result: inactive

Q: Please give the result for CC(C)CC(NC(=O)C(Cc1ccccc1)NC(=O)c1cnccn1)B(O)O (stereo unspecified) + NC1CCC(NC2CC2c2ccccc2)CC1 too.
Result: active

Q: Please give the result for CC(C)c1c(-c2ccccc2)nc2c(C#N)c[nH]n2c1=O + NC1CCC(NC2CC2c2ccccc2)CC1 too.
Result: inactive

Q: Please give the result for COc1cc(Nc2ncc3c(n2)-c2ccc(Cl)cc2C(c2c(F)cccc2OC)=NC3)ccc1C(=O)O + NC1CCC(NC2CC2c2ccccc2)CC1 too.
Result: inactive

Q: Please give the result for O=C(c1cc(Cc2n[nH]c(=O)c3ccccc23)ccc1F)N1CCN(C(=O)C2CC2)CC1 + NC1CC1c1ccc(-c2cccc(O)c2)cc1 too.
Result: inactive

Q: Please give the result for CC[C@@]1(O)C(=O)OCc2c1cc1n(c2=O)Cc2cc3c(CN(C)C)c(O)ccc3nc2-1 + NC1CC1c1ccc(-c2cccc(O)c2)cc1 too.
Result: inactive

Q: Please give the result for O=C(C=Cn1cnc(-c2cc(C(F)(F)F)cc(C(F)(F)F)c2)n1)NNc1cnccn1 + NC1CCC(NC2CC2c2ccccc2)CC1 too.
Result: active

Q: Please give the result for O=C(c1cc(Cc2n[nH]c(=O)c3ccccc23)ccc1F)N1CCN(C(=O)C2CC2)CC1 + NC1CCC(NC2CC2c2ccccc2)CC1 too.
Result: inactive

Q: Please give the result for CC(C)CC(NC(=O)CNC(=O)c1cc(Cl)ccc1Cl)B1OC(=O)CC(CC(=O)O)(C(=O)O)O1 (stereo unspecified) + NC1CCC(NC2CC2c2ccccc2)CC1 too.
Result: active

Q: Please give the result for CC1(C)CCC(CN2CCN(c3ccc(C(=O)NS(=O)(=O)c4ccc(NCC5CCOCC5)c([N+](=O)[O-])c4)c(Oc4cnc5[nH]ccc5c4)c3)CC2)=C(c2ccc(Cl)cc2)C1 + NC1CC1c1ccc(-c2cccc(O)c2)cc1 too.
Result: inactive

Q: Please give the result for CC1COCCN1c1cc(C2(S(C)(=N)=O)CC2)nc(-c2ccnc3[nH]ccc23)n1 (stereo unspecified) + NC1CCC(NC2CC2c2ccccc2)CC1 too.
Result: inactive

Q: Please give the result for CC1COCCN1c1cc(C2(S(C)(=N)=O)CC2)nc(-c2ccnc3[nH]ccc23)n1 (stereo unspecified) + NC1CC1c1ccc(-c2cccc(O)c2)cc1 too.
Result: inactive

Q: Please give the result for Nc1ncn(C2CC(O)C(CO)O2)c(=O)n1 (stereo unspecified) + NC1CCC(NC2CC2c2ccccc2)CC1 too.
Result: inactive

Q: Please give the result for CC(C)c1c(-c2ccccc2)nc2c(C#N)c[nH]n2c1=O + NC1CC1c1ccc(-c2cccc(O)c2)cc1 too.
Result: inactive

Q: Please give the result for O=C(C=Cn1cnc(-c2cc(C(F)(F)F)cc(C(F)(F)F)c2)n1)NNc1cnccn1 + NC1CC1c1ccc(-c2cccc(O)c2)cc1 too.
Result: active
